- targetOrSystem: T1, human PCSK9 (human, UniProt Q8NBP7 31-692, limits assumed)
- T1 construct: also called hPCSK9; huPCSK9
- T1 sequence (Q8NBP7 31-692 limits assumed): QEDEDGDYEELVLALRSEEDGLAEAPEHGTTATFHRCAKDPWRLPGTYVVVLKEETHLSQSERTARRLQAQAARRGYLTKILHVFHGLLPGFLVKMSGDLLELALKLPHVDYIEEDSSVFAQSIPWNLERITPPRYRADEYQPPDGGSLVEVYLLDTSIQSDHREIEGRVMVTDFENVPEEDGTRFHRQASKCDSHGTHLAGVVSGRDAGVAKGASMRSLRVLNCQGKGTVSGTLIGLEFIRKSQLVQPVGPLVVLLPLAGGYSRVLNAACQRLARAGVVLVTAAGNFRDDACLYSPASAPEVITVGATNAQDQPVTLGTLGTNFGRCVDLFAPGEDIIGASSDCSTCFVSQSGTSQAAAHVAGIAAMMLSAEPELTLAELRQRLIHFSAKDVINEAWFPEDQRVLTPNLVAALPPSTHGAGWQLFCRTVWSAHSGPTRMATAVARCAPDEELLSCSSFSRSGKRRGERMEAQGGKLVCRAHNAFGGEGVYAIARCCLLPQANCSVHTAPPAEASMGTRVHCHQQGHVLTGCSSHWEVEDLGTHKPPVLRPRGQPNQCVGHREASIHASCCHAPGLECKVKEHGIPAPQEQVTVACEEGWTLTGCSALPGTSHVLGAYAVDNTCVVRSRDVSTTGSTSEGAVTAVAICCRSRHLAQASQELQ
- assayText: SPR Biacore 3000, captured IgG, hPCSK9 injected, pH 7.4

# binder, koff (s⁻¹)
measured = [
    ("6L21H2335 (antibody, V domains shown) VH: QVQLVQSGAEVKKPGASVKVSCKASGYTFTSYYMHWVRQAPGQGLEWMGEIHPFGGRTNYNEKFKSRVTMTRDTSTSTVYMELSSLRSEDTAVYYCARERPLHASDLWGQGTTVTVSS VL: DIQMTQSPSSLSASVGDRVTITCRASQGISSALAWYQQKPGKAPKLLIYHASYRYTGVPSRFSGSGSGTDFTFTISSLQPEDIATYYCQQRYSLWRTFGQGTKLEIK", 0.00733),
    ("5L1721H23_6L3 (antibody, V domains shown, Tested as full-length IgG; also called heavy UC-H5H23, light UC-H5L1721-6L3) VH: QVQLVQSGAEVKKPGASVKVSCKASGYTFTSYYMHWVRQAPGQGLEWMGEIHPSGGRTNYNEKFKSRVTMTRDTSTSTVYMELSSLRSEDTAVYYCARERPLYAMDYWGQGTTVTVSS VL: DIQMTQSPSSLSASVGDRVTITCKASQDVHTAVAWYQQKPGKAPKLLIYHASYRYTGVPSRFSGSGSGTDFTFTISSLQPEDIATYYCQQRYSLWRTFGQGTKLEIK", 0.000214),
]
